# assay info: Pharmacokinetic evaluation in plasma after IV and PO administration
# Format: in vivo
# stated conditions: mouse, female Balb/c mice, IV 1 mg/kg
property measured: AUC(0-inf) (µM·h)
Numbers only, in µM·h.

These solved cases illustrate the format of a correct answer.
- CNC(=O)c1cccc(-c2ccc3c(N4CCOC[C@@H]4C)nc(N4CCOC[C@@H]4C)nc3n2)c1 [AZD2014, reference compound]: 4.28
- C[C@H]1COC2(CCC2)CN1c1nc(N2CCOC[C@@H]2C)c2ccc(-c3cccc(C(N)=O)c3)nc2n1: 7.4

With those in mind, consider the next compound.
Query: Find the recorded AUC(0-inf) belonging to CNC(=O)c1cc(-c2ccc3c(N4CCOC[C@@H]4C)nc(N4CCOC5(CC5)C4)nc3n2)ccc1OC and report it.
Response: 9.47
